- test-details: Volume of distribution at steady state in Beagle dog at 5 mg/kg, iv
- Assay type: ADME, organism-based, Canis lupus familiaris
- Set-up: dose 5 mg/kg, route intravenous
- settings: in vivo, read-out: Vdss
measurement-type: Vd (L/kg)
Numbers only here, please. The scale is L/kg.

Look at this compound and give its reported Vd. Cc1cc(Nc2ncc(Cl)c(Nc3ccccc3S(=O)(=O)C(C)C)n2)c(OC(C)C)cc1C1CCNCC1
13.5

---

- target-or-test-system: Vascular endothelial growth factor receptor 2 (Homo sapiens, UniProt P35968)
- Sequence (P35968 20-1356 limits assumed): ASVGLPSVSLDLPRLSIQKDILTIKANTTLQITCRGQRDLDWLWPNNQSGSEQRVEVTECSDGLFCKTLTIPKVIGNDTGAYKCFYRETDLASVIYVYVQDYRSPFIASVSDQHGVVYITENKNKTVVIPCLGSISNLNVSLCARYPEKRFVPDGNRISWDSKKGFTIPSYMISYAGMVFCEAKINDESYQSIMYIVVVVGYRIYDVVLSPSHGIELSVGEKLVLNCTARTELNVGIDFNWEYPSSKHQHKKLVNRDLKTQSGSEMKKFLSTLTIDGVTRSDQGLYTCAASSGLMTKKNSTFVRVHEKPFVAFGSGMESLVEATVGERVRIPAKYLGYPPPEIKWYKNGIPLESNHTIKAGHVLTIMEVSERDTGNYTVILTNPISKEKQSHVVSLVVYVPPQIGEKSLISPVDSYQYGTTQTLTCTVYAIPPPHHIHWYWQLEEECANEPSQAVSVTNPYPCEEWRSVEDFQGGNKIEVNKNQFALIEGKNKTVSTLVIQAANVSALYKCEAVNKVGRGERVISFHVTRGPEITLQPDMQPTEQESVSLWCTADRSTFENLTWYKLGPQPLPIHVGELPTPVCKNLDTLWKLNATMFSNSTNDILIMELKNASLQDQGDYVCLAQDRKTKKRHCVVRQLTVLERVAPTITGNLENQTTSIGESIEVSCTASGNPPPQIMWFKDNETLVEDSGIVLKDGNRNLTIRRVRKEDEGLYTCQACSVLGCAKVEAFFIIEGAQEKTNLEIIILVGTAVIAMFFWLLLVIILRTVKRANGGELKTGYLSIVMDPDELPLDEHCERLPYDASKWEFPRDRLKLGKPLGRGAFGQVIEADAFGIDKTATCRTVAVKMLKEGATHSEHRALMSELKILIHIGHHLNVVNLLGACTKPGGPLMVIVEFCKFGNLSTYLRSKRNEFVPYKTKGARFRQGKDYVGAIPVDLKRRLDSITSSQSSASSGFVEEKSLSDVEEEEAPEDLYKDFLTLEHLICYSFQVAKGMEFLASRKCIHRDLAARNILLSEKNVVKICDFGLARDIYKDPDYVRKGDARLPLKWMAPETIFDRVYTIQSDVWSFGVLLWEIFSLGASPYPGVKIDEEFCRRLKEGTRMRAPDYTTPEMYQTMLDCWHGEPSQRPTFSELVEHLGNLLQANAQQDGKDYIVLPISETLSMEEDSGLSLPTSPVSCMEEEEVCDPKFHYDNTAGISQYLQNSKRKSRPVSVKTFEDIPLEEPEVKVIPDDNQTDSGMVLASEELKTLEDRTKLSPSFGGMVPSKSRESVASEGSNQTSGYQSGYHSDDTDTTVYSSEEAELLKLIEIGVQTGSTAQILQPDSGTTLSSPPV
measurement-type: pIC50
For clarity, pIC50 is expressed as the negative log10 of concentration in mol/L.

API: value(readout=pIC50, system=Vascular endothelial growth factor receptor 2 (Homo sapiens, UniProt P35968)) for record Cc1cc(Nc2ncc(Cl)c(Nc3ccccc3S(=O)(=O)C(C)C)n2)c(OC(C)C)cc1C1CCNCC1
5.38
